target: Sterol 14-alpha demethylase (Trypanosoma cruzi (strain CL Brener), UniProt Q7Z1V1); assay: GSK_TCAKS: pIC50 CYP51 from Trypanosoma cruzi.
Sequence (Q7Z1V1 whole entry): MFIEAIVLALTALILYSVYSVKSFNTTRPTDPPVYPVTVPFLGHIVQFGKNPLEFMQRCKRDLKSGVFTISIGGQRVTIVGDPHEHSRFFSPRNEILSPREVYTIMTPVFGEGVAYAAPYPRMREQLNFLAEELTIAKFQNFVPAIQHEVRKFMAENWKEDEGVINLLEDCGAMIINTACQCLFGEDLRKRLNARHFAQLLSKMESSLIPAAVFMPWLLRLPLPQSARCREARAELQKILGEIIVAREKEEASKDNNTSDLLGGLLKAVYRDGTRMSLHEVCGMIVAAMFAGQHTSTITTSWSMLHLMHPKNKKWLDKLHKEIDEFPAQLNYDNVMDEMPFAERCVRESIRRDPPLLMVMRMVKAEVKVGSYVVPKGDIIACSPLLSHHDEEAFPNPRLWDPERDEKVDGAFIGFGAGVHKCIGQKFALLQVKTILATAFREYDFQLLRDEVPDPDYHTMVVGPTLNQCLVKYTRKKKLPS
MEASURED ENDPOINT: pIC50
Give bare numbers, as −log10 of the molar value.

Observe how each entry below is paired with its result.
Ask | If you can, please state the reported pIC50 value of Cc1ccc(C)c(CN2C(=O)NC3(CCc4ccccc43)C2=O)c1 (stereo not given) .
Reply | 4.40

Ask | If you can, please state the reported pIC50 value of Cc1ccccc1NS(=O)(=O)c1ccc2[nH]cc(C(=O)NC3CCCC(C)C3C)c(=O)c2c1 (stereo not given) .
Reply | 5.30

Ask | If you can, please state the reported pIC50 value of "Cc1ccc(-c2csc(NC(=O)C=Cc3ccc(S(=O)(=O)N4CCOCC4)cc3)n2)o1" .
Reply | 4.70

Below are 2 molecules. Give each one its pIC50.
1. N#Cc1cccc(Nc2nccc(N3CCC(NS(=O)(=O)c4cccc(C#N)c4)CC3)n2)c1
2. O=C(NCC(c1cccs1)N1CCOCC1)c1ccc([N+](=O)[O-])o1 (stereo not given)

Reply |
[5.10, 5.00]

====

system: Leishmania donovani; assay: GSK_TCAKS: pIC50 Leishmania donovani viability assay using fluorescence intensity. Assay plates (1536-well) were prepared by adding 30nL per well of compound. For single shot assay, the final compound concentration was 5uM. […] Briefly, eGFP LdBOB axenic amastigotes were harvested, fixed and counted in a CASY cell counter (Roche-Applied Science). A final concentration of 1.5 * 10^5 cells per well were prepared in amastigote media containing 500 U/mL penicillin/streptomycin (Invitrogen) and 6uL was dispensed to each experimental well using a Multidrop Combi dispenser (Thermo Scientific). 6uL of assay media was dispensed to control columns used as reference for 100% compound response. Following incubation for 72 h at 37C, 5% CO2, 2 uL of resazurin was added to each well at a final concentration of 0.5 mM in phosphate buffered saline (PBS) with IGEPAL (Sigma-Aldrich), 0.05% (v/v).; assay type: functional, organism-based
pIC50: −log10 of the molar value.
Would you kindly list pIC50 for each of these compounds?

Observe how each entry below is paired with its result.
Ask | If you can, please state the reported pIC50 value of O=C1CN(Cc2ccco2)C2CS(=O)(=O)CC2N1c1ccc(Cl)cc1 (stereo not drawn) .
Reply | < 4.30

Ask | If you can, please state the reported pIC50 value of "O=C(COc1ccccc1)Nc1ccccc1C(=O)Nc1nccs1" .
Reply | < 4.30

The record that follows has no pIC50 shown yet.
Ask | If you can, please state the reported pIC50 value of "COc1ccc2c(Cl)c(C(=O)N3CCC3)sc2c1Cl" .
Reply | < 4.30

====

test system: Trypanosoma cruzi; test: GSK_TCAKS: pIC50 Trypanosoma cruzi viability assay using beta-GAL activity. This assay was run at single shot at 5uM compound concentration per well. The biological reagents consisted of NIH-3T3 host cells and trypomastigotes parasitic cells; both cell types were set to a 3.3 * 10^5 cells/mL dilution in assay DMEM by means of a CASY cell counter device using a 60um capillary. 6 uL of the mixture were dispensed per well (about 1 * 10^3 host-cells and 1 * 10^3 parasites) with a Multidrop Combi dispenser. […] In all wells, the percentage of DMSO never exceeded 0.5%. Plates incubated for four days at 37C, 5% CO2. The substrate used for the assay fluorescence intensity (FLINT) readout was resorufin-beta-D-galactopiranoside (Sigma-Aldrich) at 5uM per well. It was diluted in PBS supplemented with the soft detergent Igepal (Fluka).; assay type: functional, organism-based, Mus musculus; details: Tulahuen, NIH3T3
MEASURED ENDPOINT: IC50 (nM)
Numbers only, in nM.

Ask | If you can, please state the reported IC50 value of "CCCNC(=O)Nc1cccc(-c2nc3ncccc3o2)c1" .
Reply | 2820

Ask | If you can, please state the reported IC50 value of CN(C)Cc1ccc(-c2ccc(S(=O)(=O)NCC3CCCO3)c(F)c2)cc1 (configuration not stated) .
Reply | 1260

Ask | If you can, please state the reported IC50 value of "Cc1nc2c(-c3ncn[nH]3)cc(NC(=O)Cc3ccccc3)cn2c1C" .
Reply | 1000

Below are 8 compounds. Give each one its IC50.
1. Cc1cc(NC(=O)CC2CCCCC2)n(-c2nc3c(c(=O)[nH]2)CCC3)n1
2. Nc1nc(-c2ccccc2)cc(-c2nc3cccnc3[nH]2)n1
3. COc1ccc([N+](=O)[O-])cc1NC(=O)Nc1cccc(Cl)c1
4. CC(=Cc1ccccc1)CN1CCC(=O)N(Cc2cccnc2)CC1
5. Cc1ccccc1NS(=O)(=O)c1ccc2[nH]cc(C(=O)NC3CCCC(C)C3C)c(=O)c2c1 (configuration not stated)
6. O=C(Nc1nc(-c2ccccn2)cs1)N1C[C@H]2C[C@@]2(c2ccccc2)C1
7. O=C1c2cnc(N3CCCC3)nc2CN1c1ccc2c(c1)OCO2
8. NCc1ccc2c(Cl)cc(Cl)c(O)c2n1

Reply |
[251, 3160, 794, 251, 5010, 501, 2510, 2510]
